Assay: probe aLAP1 signal on lysate-treated microarray – cell lysate, small-molecule microarray, COS7 lysate, primary screen (AID 1124);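 further: lysate comes from COS7 cells expressing LAP1 and is applied at 0.3 µg/mL; score merges spot fluorescence near 667 nm with signal-to-noise over triplicate slides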
Details: probe aLAP1, fluorescence, higher = more signal
Reported composite z-score values for the following molecules.

molecule	composite z-score
CCOC(=O)[C@H]1C/C=C/C[C@H](C(=O)OCC)C(=O)O[C@H]2[C@@H](OC)O[C@H](CO)[C@@H](OC(=O)c3ccc(Br)cc3)[C@@H]2OC1=O	0.435
O=C(CS)NCCCCCNC(=O)[C@@H]1C[C@@H]2C(=O)NCC(=O)N2[C@@H]1c1cccc(OCCO)c1	0.783
CCN(CC)c1ccc(N2CC=CC34O[C@@H]5C=CCOC(=O)[C@@H]5[C@H]3C(=O)N(CCCCCCO)[C@@H]4C2=O)cc1 (stereo partly drawn)	0.751
CCN(CC)c1ccc(N2CC=CC34O[C@@H]5/C=C\CCC(C)OC(=O)C5[C@H]3C(=O)N(CCCCCO)[C@@H]4C2=O)cc1 (stereo partly drawn)	-0.472
COc1cc(OC)c(C(O)C2C=CC3C(=O)NC(=O)C3N2Nc2ccccn2)cc1Br (stereo not drawn)	0.487
COCCCNC(=O)[C@@]1(CCS(=O)(=O)c2ccccc2)N=C(c2ccc(OCCCO)cc2)O[C@H]1c1ccccc1N=[N+]=[N-]	0.743
C[N+](C)(C)CCCCCCNC(=O)[C@H]1C[C@H]2C(=O)N[C@@H](Cc3ccccc3)C(=O)N2[C@H]1c1cccc(OCCO)c1	0.319
CC(c1ccccc1)C(O)C1C=CC2C(=O)N(C)C(=O)C2N1NC(=O)OC(C)(C)C (stereo not drawn)	0.857
COCCOC(=O)N1C(=O)[C@@]2(c3ccccc31)[C@H](c1ccc(OCCO)cc1)N1[C@H](c3ccccc3)[C@H](c3ccccc3)OC(=O)[C@H]1[C@@H]2C(=O)N1CCc2cc(OC)c(OC)cc2C1	1.43
CCOc1ccc(N2C(=O)CSC2c2cccc([N+](=O)[O-])c2)cc1 (stereo not drawn)	0.181
CC(C)Cc1ccc(CN2CC[C@@H](N)C2)cc1	-0.485
CC[C@@H]1C=C(C(=O)O)[C@H](c2cccc3ccccc23)N1S(=O)(=O)c1ccc(C)cc1	0.687
C#CCN1[C@H](/C=C/C2CC2)[C@H](Cc2ccccc2)OC(=O)[C@@H]1Cc1ccccc1	0.092
